Values from patent EP2664619B1

- System: Aβ38
- PROTOCOL DETAILS: Effect of γ-secretase inhibitors/modulator on Aβ38 level in Aftin-treated cells
- Assay type: cell-based
- STATED CONDITIONS: γ-secretase inhibitor, Aftin-treated cells
PROPERTY: pIC50
Schema: pIC50 number; meaning minus log10 of the concentration expressed in molar units.

1. C[C@H](c1ccc(F)cc1CCCC(=O)O)N(c1cc(F)ccc1F)S(=O)(=O)c1ccc(Cl)cc1 [BMS 299897]
7.06

Now consider the entry below.
Input C[C@H](NC(=O)Cc1cc(F)cc(F)c1)C(=O)N[C@H](C(=O)OC(C)(C)C)c1ccccc1 [DAPT] , output reported pIC50. 6.95
